assay-name: amyloid nucleation score (Sup35N fusion, yeast selection) (log enrichment); library NNK2; higher = more nucleation; inactive = no reads after selection;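 also: zero at mode of non-aggregating sequences after 7 days selection at 30°C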
measured-quantity: amyloid nucleation score
Answers are plain numbers.

Some solved cases for reference:
# substance, amyloid nucleation score
records = [
    ("MGLPSIF", 5.89),
    ("RMCMAIKERSY", 0.508),
    ("SDSSRFVDKGSYRYKRREWE", -0.161),
    ("GDSPNNSYWIADSW", 2.75),
    ("AVDFKQDNHKYVNSLTDMGA", 0.034),
    ("LFSTYRNFIFVIHSADMCKS", -0.558),
    ("TTQDATLIVNSCNTFTLQVY", -0.389),
    ("KLVGMPFSSVACNSFKHRSE", 0.408),
    ("DGGREPIVFYSQNYVCNKFV", 6.78),
]

Query block: Value lookup for amyloid nucleation score; key = PGSMPRRMSRCWSIGLDGEE
Result block: 1.3

----------
assay-name: amyloid nucleation score (Sup35N fusion, yeast selection) (log enrichment); library NNK1; higher = more nucleation; inactive = no reads after selection
measured-quantity: amyloid nucleation score
Answers are plain numbers.

Some solved cases for reference:
# substance, amyloid nucleation score
rows = [
    ("HYLCPVACRGRFVVSQPVNI", -1.14),
    ("ISMTDYVPSMHYAQTRVHLN", -0.085),
    ("VSCANMNIDELTWHVDWWCL", 7.6),
    ("RYTEAASICRLVLGGQGVRI", -0.155),
    ("MLISSILTYIKVSGYCPGCT", 0.347),
]

Would you mind giving amyloid nucleation score for every substance in the list below?
1. ASSGSVGVLNLATHTTVKWQ
2. SDASHHHRYRESHDYCFFRK
3. LVIFKLTM
4. LLRLVSFCCFSNRN
5. GVFVKGWYWKWGMGDELQAA
6. LLLGDC
7. SLTYCHSIIKDLETLIFRSK
8. LDNRYFGHIMSLELMFIRPS

Result block:
4.04
0.272
3.51
6.05
0.182
-1.43
0.283
1.19

Would you mind giving amyloid nucleation score for every substance in the list below?
1. FRICYCWFGGEKDHRNFQIG
2. LIIVEIMLDDVSVVSFRVIH
3. LAIEENVRDQSGDYVWALIL
4. LRPYFLGCRRSKKPKALLAG
5. LHWFQLMANFI
6. AVPCSC

Result block:
[3.86, 0.195, -0.122, 0.252, -0.069, 0.189]

Would you mind giving amyloid nucleation score for every substance in the list below?
1. QRGMTIL
2. NMVSCGDALR

Result block:
1. 0.109
2. -0.554

Would you mind giving amyloid nucleation score for every substance in the list below?
1. TETLADVLALERLPGCMKFI
2. RLSIFRLYPLLCRRG
3. NRIISLCSLSCDYLNLDWCI
4. NMRYHGISCRYRKYYFRWLD
5. RNMVSLRHSEDVICVQDTTP
6. HSSSSHGEKCGYVGNSHPSS

Result block:
1: 0.259; 2: 0.163; 3: 7.13; 4: -0.261; 5: -0.729; 6: 0.691

----------
assay-name: amyloid nucleation score (Sup35N fusion, yeast selection) (log enrichment); library NNK2; higher = more nucleation; inactive = no reads after selection

# sequence, amyloid nucleation score
data = [
    ("RAFCVGSTYSSSGGQSLMRV", "inactive"),
    ("YNVDDCSHRDRFIDNRDSEC", "inactive"),
    ("VRFTLYGCWGLMFFTMVGR", "inactive"),
]
